System: OVCAR-4
Experiment: NCI tumour cell line growth inhibition, 48 h
The source made the active and inactive calls. No stated cut-off is given here; in the data, active = GI50 up to about 1.1 µM and inactive = higher.
VALUE_TYPE: GI50

A selection of reference data follows.
CCOC(=O)CNC1=NNS(=O)(=O)c2ccccc21; > 100 µM (inactive)
Cc1cc(Br)cc(C)c1NC(=O)C(=O)C(C(=O)c1ccc(Cl)c(Cl)c1)C1OC(=O)c2ccccc21 (centres undefined); > 100 µM (inactive)
CO/N=C(\C)c1cccc(Nc2c3ccccc3nc3occc23)c1; 4.75 µM (inactive)

Problem: Please give measured GI50 of the following entry: [N-]=[N+]=Nc1ccccc1-c1ccccc1[N+](=O)[O-]
Solution: 72.9 µM (inactive)

Problem: Please give measured GI50 of the following entry: CCn1c2c(c3ccccc31)C(c1ccccc1)CC1C(=O)N(c3ccccc3)C(=O)C21 (centres undefined)
Solution: > 100 µM (inactive)

Problem: Please give measured GI50 of the following entry: COc1cccc(C(C#N)NNC(=O)c2c(Cl)c(Cl)c(Cl)c(Cl)c2-c2nc3cc(C(=O)c4ccccc4)ccc3[nH]2)c1O (centres undefined)
Solution: 3.09 µM (inactive)

Problem: Please give measured GI50 of the following entry: CCOC(OCC)[C@@H]1C[C@@H]2N(O[C@H](OC3CCCC3(c3ccccc3)c3ccccc3)[C@H](OC(C)=O)[C@@]2(CC)Cc2ccc(OC)c(OC)c2)O1 (some centres undefined)
Solution: > 100 µM (inactive)

Problem: Please give measured GI50 of the following entry: COc1cc2c(cc1OC)C1(c3ccc(Cl)cc3)ON=C(c3ccccc3)N1CS2 (centres undefined)
Solution: > 100 µM (inactive)

Problem: Please give measured GI50 of the following entry: COc1cc(N(CCC#N)CCC#N)ccc1C(=N/NC(=O)c1cc(Br)ccc1O)/N=N/c1ccccc1
Solution: 19.6 µM (inactive)

----------
GI50 values, listed per item
System: A498
Assay: NCI tumour cell line growth inhibition, 48 h
Where a name gives a salt, the structure may show the parent alone. The source made the active and inactive calls. No stated cut-off is given here; in the data, active = GI50 up to about 1.1 µM and inactive = higher.

A selection of reference data follows.
CCc1cccc(C(C)CC)c1NC(=O)CC1C(=O)Nc2ccccc2S1(=O)=O (stereo not drawn); 33.6 µM (inactive)
CC1C2CC(C/C2=N/O)C1(C)C (stereo not drawn); > 100 µM (inactive)
CC(=O)N(C)c1ccc(Nc2cc(C)nc3ccc4nc[nH]c4c23)cc1 [ACODAZOLE HYDROCHLORIDE]; 10.4 µM (inactive)
CC(=O)OCC1OC(N=[N+]=[N-])C(OC(C)=O)C(OC(C)=O)C1OC1OC(COC(C)=O)C(OC(C)=O)C(OC(C)=O)C1OC(C)=O (stereo not drawn); > 100 µM (inactive)
Nn1c(S)nnc1N/N=C1/C(=O)Nc2c(Cl)cc(Cl)cc21; 65.5 µM (inactive)

Problem: Please give measured GI50 of the following entry: COc1cccc(C(C#N)NNC(=O)c2c(Cl)c(Cl)c(Cl)c(Cl)c2-c2nc3cc(C(=O)c4ccccc4)ccc3[nH]2)c1O (stereo not drawn)
Solution: 2.05 µM (inactive)

Problem: Please give measured GI50 of the following entry: O=C(c1cc2ccccc2o1)N(Cc1ccccc1)c1ccccc1
Solution: 34.4 µM (inactive)

Problem: Please give measured GI50 of the following entry: O=[N+]([O-])/C=C/c1cccc(F)c1
Solution: 13.7 µM (inactive)
